test-target: MPV fusion glycoprotein without the D280N mutation (MPV-F D280) (metapneumovirus)
experimental-details: SPR; F protein loaded on streptavidin sensors, mAb in solution
quantity-kind: Kd (nM)
The reply should be a number in nM, with the unit left off.

IN: Look up and report measured Kd for this entry: MPK142-v1 (antibody, V domains shown) VH: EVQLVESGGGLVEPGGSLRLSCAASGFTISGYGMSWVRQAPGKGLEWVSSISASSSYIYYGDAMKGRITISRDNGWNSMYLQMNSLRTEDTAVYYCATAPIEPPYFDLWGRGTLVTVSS VL: QSVLTQPPSVSGAPGQRVTISCTGSSSNIGAGYDVHWYQQFPGKAPKVLIYGNNNRPSGVPDRFAASNSGASASLAITGLQAEDEAAYFCQSYDRRLSGPVFGGGTKLTVL
OUT: 100

IN: Look up and report measured Kd for this entry: MPK142-v2 (antibody, V domains shown) VH: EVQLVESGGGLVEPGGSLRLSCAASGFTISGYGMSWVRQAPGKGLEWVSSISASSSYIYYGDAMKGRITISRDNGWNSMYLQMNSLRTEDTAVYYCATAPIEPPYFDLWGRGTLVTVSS VL: DIQLTQTPTSLSASVGDRVTFTCRASQNIGFYLNWYQQKPGKAPRLLIYGASNLQSGVPSRFSGSGAGTDFSLTISSLQPEDFATYYCQQSFNTPRTFGQGTKVEIN
OUT: 0.0027

IN: Look up and report measured Kd for this entry: MPK145 (antibody, V domains shown) VH: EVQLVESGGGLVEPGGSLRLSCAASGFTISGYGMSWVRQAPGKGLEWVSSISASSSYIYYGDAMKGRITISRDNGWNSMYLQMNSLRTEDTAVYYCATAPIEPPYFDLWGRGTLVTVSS VL: QSVVTQPPSVSGAPGQRVTISCTGSSSNIGAGYDVHWYQQFPGKAPKVLIYGNNNRPSGVPDRFAASNSGASASLAITGLQAEDEAAYFCQSYDRRLSGPVFGGGTKLTVL
OUT: 0.001

IN: Look up and report measured Kd for this entry: MPK174-v2 (antibody, V domains shown) VH: EVQLVESGGGLVKPGGSLRLSCAASRFKFGDYYMSWIRQAPGKGLEWVSNISPSSSYTNYADSVKGRFTISRDNAKNLLYLQMNSLRAEDTAVYYCARESCSGGSCSLHGMDVWGQGTTVTVAS VL: QSVLTQPPSVSGAPGQRVTISCTGSSSNIGAGYDVHWYQQLPGTAPKLLIYDNSNRPSGVPDRFSGSKSGTSASLAITGLRAEDDADYYCQSYDRSLGGSIFGGGTKLTVL
OUT: 11
